test_system: CCK2R (Homo sapiens)
Construct: expressed in transfected cells; host or cells: HEK 293T cells
Sequence (P32239 1-447): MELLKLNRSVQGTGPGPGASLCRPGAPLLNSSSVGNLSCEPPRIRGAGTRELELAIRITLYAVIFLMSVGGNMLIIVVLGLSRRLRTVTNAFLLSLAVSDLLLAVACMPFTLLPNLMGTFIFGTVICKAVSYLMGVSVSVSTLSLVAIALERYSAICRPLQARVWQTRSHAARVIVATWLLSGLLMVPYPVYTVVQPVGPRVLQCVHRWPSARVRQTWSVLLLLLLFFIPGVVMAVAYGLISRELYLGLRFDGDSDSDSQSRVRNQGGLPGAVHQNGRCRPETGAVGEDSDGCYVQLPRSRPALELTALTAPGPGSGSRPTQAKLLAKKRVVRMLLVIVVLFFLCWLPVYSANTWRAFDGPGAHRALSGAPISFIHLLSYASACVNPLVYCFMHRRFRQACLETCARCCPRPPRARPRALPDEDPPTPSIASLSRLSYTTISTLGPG
experiment_description: Competitive binding (FACS) on CCK2R-transfected HEK 293T cells with Cy5-labeled F11N derivative
measurement_parameters: HEK 293T transfected, Cy5-labeled F11N derivative competitive ligand (Table 4); read-out: CCK2R IC50
measured_property: pIC50
In textbook form, pIC50 equals minus log to base ten of the concentration in mol/L.

What value of pIC50 has been reported for the following molecule? C[C@@H](O)[C@H](NC(=O)[C@@H]1CSSC[C@H](NC(=O)[C@@H](Cc2ccccc2)C(=O)C(=O)COCCOCCNC(=O)[C@H](CCCCCC(=O)COCCOCCNC(=O)COCCOCCCC(=O)[C@H](CCC(=O)O)NC(=O)c2cccc(NC(=O)NN3CCc4ccccc4N(CC(=O)C(C)(C)C)C3=O)c2)NC(=O)CN2CCN(CC(=O)O)CCN(CC(=O)O)CCN(CC(=O)O)CC2)C(=O)N[C@@H](Cc2ccc(O)cc2)C(=O)N[C@H](Cc2c[nH]c3ccccc23)C(=O)N[C@@H](CCCCN)C(=O)N[C@@H]([C@@H](C)O)C(=O)C1)C(=O)O [Compound I-76] 7.95
